- SYSTEM TESTED: ATX (Homo sapiens, UniProt Q13822)
- TEST DESCRIPTION: Amplex Red Lyso-phospholipase D assay, human ATX
- Assay type: biochemical
- Set-up: purchased Sino Biological
READOUT KIND: IC50 (µM)
Hi! Could you send only the number? It should be in µM, unit omitted.

Documented IC50 of CCOC(=O)c1c(CN2CCCCC2)n(Cc2ccccc2)c2cc(Br)c(O)cc12 : 13.8

----------
- SYSTEM TESTED: ATX (Homo sapiens, UniProt Q13822)
- TEST DESCRIPTION: IC50 Eleanna (Table S2, method not described)
- Format: biochemical
- CONDITION SUMMARY: Table S2; read-out: IC50 Eleanna
READOUT KIND: IC50

Here's what some known entries look like.
compound="O=C(Cc1cccc2ccccc12)Nc1c2c(nn1-c1ccccc1)CS(=O)(=O)C2 [SC-5]" system_tested="ATX (Homo sapiens, UniProt Q13822)" assay_value="2.2 µM"
compound="Cc1cc(C)cc(NC(=O)CSc2cn(CC(=O)N3CCCC3)c3ccccc23)c1 [KM-50]" system_tested="ATX (Homo sapiens, UniProt Q13822)" assay_value="5 µM"
compound="Cc1ccc(-n2nc3c(c2NC(=O)c2cccc4ccccc24)C[S+]([O-])C3)cc1 (stereo not drawn) [SC-16]" system_tested="ATX (Homo sapiens, UniProt Q13822)" assay_value="> 5 µM"
compound="O=C(Nc1c2c(nn1-c1ccccc1)C[S+]([O-])C2)c1cccc2ccccc12 (stereo not drawn) [SC-9]" system_tested="ATX (Homo sapiens, UniProt Q13822)" assay_value="> 5 µM"
compound="Cc1ccccc1-n1nc2c(c1NC(=O)c1ccc3ccccc3c1)CS(=O)(=O)C2 [SC-47]" system_tested="ATX (Homo sapiens, UniProt Q13822)" assay_value="3.4 µM"
compound="CCOC(=O)c1c(-c2ccccc2)oc2ccc(O)c(CN3CCCCC3C)c12 (stereo not drawn) [KM-48]" system_tested="ATX (Homo sapiens, UniProt Q13822)" assay_value="> 5 µM"
compound="CC12N[N+](c3ccccc3)=C(c3ccccc3)C1S(=O)(=O)c1ccccc12 (stereo not drawn) [SC-36]" system_tested="ATX (Homo sapiens, UniProt Q13822)" assay_value="> 5 µM"
compound="CCc1ccccc1NC(=O)C1c2ccccc2C(=O)N(CCOC)C1c1cccs1 (stereo not drawn) [KM-4]" system_tested="ATX (Homo sapiens, UniProt Q13822)" assay_value="> 5 µM"

// below: IC50 requested for another compound
Documented IC50 of Cc1ccc(-n2nc3c(c2NC(=O)c2cccc4ccccc24)CS(=O)(=O)C3)cc1 [SC-43] : > 5 µM
